Taken from ChEMBL document CHEMBL1201862.

# Test system: SR
# Assay summary: NCI tumour cell line growth inhibition, 48 h
Calls of active or inactive are those of the source. Cut-off read from the data, not from the text of the source: active = GI50 up to about 1.1 µM and inactive = higher.
Labels: active, inactive

Compound: c1nnc(NCNc2nncs2)s1
Class label: inactive
//
Compound: COc1ccc(/C(=C/n2ccnc2)C(O)c2ccc(OC)c(OC)c2)cc1OC (configuration not stated)
Class label: inactive
//
Compound: CCOC(=O)c1nc2ccccc2nc1NCc1ccc(OC)c(OC)c1
Class label: inactive
//
Compound: CC(Br)CN1CCOCC1 (configuration not stated)
Class label: inactive
//
Compound: O=C(/C=C/c1ccc(O)c(O)c1)O[C@H]1CCCC[C@@H]1OC(=O)/C=C/c1ccc(O)c(O)c1
Class label: inactive
//
Compound: Cc1cc(S(=O)(=O)Nc2nc(N)n(-c3cnc4ccccc4n3)n2)c(S)cc1Cl
Class label: inactive
//
Compound: CNc1ncnc2c1ncn2C1C=CC(COS(N)(=O)=O)C1 (configuration not stated)
Class label: inactive
//
Compound: c1ccc(-c2nc(-c3ccccc3)c(-c3ccccc3)[nH]2)cc1
Class label: inactive
//
Compound: COc1ccc2nc3cc(Cl)ccc3c(NCCCN(C)CCCNc3ccc4ncn5c6ccccc6c(=O)c3c45)c2c1
Class label: active
//
Compound: CN1CCCN2CCN(C)CCN(CC1)CC2
Class label: inactive
//
Compound: CCOC(=O)C(C(=O)c1ccccc1-c1ccccc1C(=O)O)=P(c1ccccc1)(c1ccccc1)c1ccccc1
Class label: inactive
//
Compound: COc1ccc(/C=c2\s/c(=C3/SC(=S)N(c4ccccc4)C3=O)n(-c3ccccc3)c2=O)cc1
Class label: inactive
//
Compound: Nc1nc(O)nc2snnc12
Class label: inactive
//
Compound: O=C1OC(CC(=O)c2ccc(Cl)cc2Cl)C(Cl)=C1Cl (configuration not stated)
Class label: inactive
//
Compound: O=S(=O)(O)c1cccc2c(/N=N/c3c(O)ccc4ccccc34)cccc12
Class label: inactive
//
Compound: CCN(CC)CCOc1ccc(/C=C(\C#N)c2ccc(OCCN(CC)CC)cc2)cc1
Class label: inactive
//
Compound: C=C1C(=O)OC2CC(C)C3C=CC(=O)C3CC12 (configuration not stated)
Class label: active
//
Compound: CC1CN=C(Nc2cccc(C(F)(F)F)c2)S1 (configuration not stated)
Class label: inactive
//
Compound: COc1cc(C(C#N)NNc2nc(C)cc(O)n2)cc(OC)c1OC (configuration not stated)
Class label: inactive
//
Compound: Nc1ccccc1C(=O)NC(=O)Nc1ccc(Oc2ncc(Br)cn2)c(Cl)c1
Class label: active
//
Compound: COc1ccc(-c2c(C#N)c(N)nc3c2CCS(=O)(=O)c2ccccc2-3)cc1
Class label: inactive
//
Compound: COC(=O)C(=O)C(C(=O)OC)C(=O)C(=O)Nc1cc(Cl)c(C)cc1S(=O)(=O)O (configuration not stated)
Class label: inactive

====

# System: BT-549
# Assay summary: NCI tumour cell line growth inhibition, 48 h
Active and inactive are the calls of the source. No stated cut-off is given here; in the data, active = GI50 up to about 1.1 µM and inactive = higher.
Labels: active, inactive

Compound: CC(=O)Oc1c2c(c(CC=C(C)C)c3c1C(=O)C1=C[C@@H]4CC5C(C)(C)OC(C/C=C(/C)C(=O)O)(C4=O)[C@@]15O3)OC(C)(CCC=C(C)C)C=C2 (stereo partly specified)
Class label: active

Compound: CC(NC(=O)C(C)C(=O)Nc1ccc(C(F)(F)F)cc1)C(N)=O (stereo unspecified)
Class label: inactive

Compound: C=CC(=O)Nc1ccc(NC(=O)C=C)c2c1C(=O)c1ccccc1C2=O
Class label: inactive

Compound: C[C@]12C[C@H](O)[C@H]3[C@@H](CCC4=CC(=O)CC[C@@]43C)[C@@H]1CC[C@@H]2c1csc(-c2ccccc2)n1
Class label: inactive

Compound: CS(=O)(=O)OCCCCOS(=O)(=O)CF
Class label: inactive

Compound: C/C(CC(O)(C(F)(F)F)C(F)(F)F)=N\N
Class label: inactive

Compound: C1=C2C3=[N+](CCCC3)CC2Cc2sccc21 (stereo unspecified)
Class label: inactive

Compound: O=[N+]([O-])c1ccc(-c2cc(O)c3nc4ccccc4n3c2)cc1
Class label: inactive

Compound: CCC(C)C(NC(=O)c1c2ccccc2nc2ccccc12)C(=O)O (stereo unspecified)
Class label: inactive

Compound: Cc1nn(C(=O)Cc2ccccc2)c2c1C(c1ccccc1)SC(=N)N2 (stereo unspecified)
Class label: inactive

Compound: CNc1ncnc2c1ncn2C1C=CC(COS(N)(=O)=O)C1 (stereo unspecified)
Class label: inactive

Compound: CSc1nc(=O)c(C#N)c(-c2ccccc2)n1C1OC(COC(C)=O)C(OC(C)=O)C(OC(C)=O)C1OC(C)=O (stereo unspecified)
Class label: inactive

Compound: CO[C@]12C[C@@H](CNC(=O)c3cc(Br)c[nH]3)O[C@H]1NC(=O)N2
Class label: inactive

Compound: O=C(/C=C/c1ccc(O)c(O)c1)O[C@H]1CCCC[C@@H]1OC(=O)/C=C/c1ccc(O)c(O)c1
Class label: inactive

Compound: Oc1nnnc2c1sc1ncccc12
Class label: inactive

Compound: COC(=O)C1=CC2CCCC1(O)C(C(C)=O)C2 (stereo unspecified)
Class label: inactive

Compound: O=C(c1ccccc1)N1CCC(Nc2cccnc2)O1 (stereo unspecified)
Class label: inactive

Compound: CCCCCc1nnc(NS(=O)(=O)c2ccc(NC(=O)OCC(C)C)cc2)s1
Class label: inactive

Compound: COc1ccc2c(c1)C/C(=C\c1cccc3ccccc13)C2=O
Class label: inactive

Compound: CN(C)S(=O)(=O)Nc1ccccn1
Class label: inactive

Compound: CCC(C)[C@H](NC(=O)[C@H](Cc1ccccc1)NC(=O)N(CC)c1ccccc1)C(=O)N[C@@H](CC(C)C)C(=O)OC (stereo partly specified)
Class label: inactive
